Target or test system: T1, B7-H2mIg (extracellular domain of human B7-H2 linked to mouse IgG2a) (human; mouse, UniProt O75144 19-256)
T1 construct: extracellular domain; also called B7-H2Ig (mouse Ig); B7-H2Ig; not shown: mouse IgG2a
T1 sequence (looked up): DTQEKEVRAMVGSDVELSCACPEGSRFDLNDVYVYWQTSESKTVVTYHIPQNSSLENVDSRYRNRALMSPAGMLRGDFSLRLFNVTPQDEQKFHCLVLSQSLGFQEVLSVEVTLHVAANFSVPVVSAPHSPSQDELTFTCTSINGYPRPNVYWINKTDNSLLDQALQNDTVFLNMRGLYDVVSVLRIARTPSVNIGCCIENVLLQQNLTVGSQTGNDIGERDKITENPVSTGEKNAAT
Assay comment: capture ELISA, B7-H2mIg coated, anti-human IgG-HRP detection
Recorded endpoint: B7-H2 Binding (specific binding activity as percentage of ICOSIg)

{"Binder": "ICOSIg mutant Lys52Ser (Fc fusion, Built on ICOSIg cDNA; not shown: CH2-CH3 portion of human IgG1) EINGSANYEMFIFHNGGVQILCKYPDIVQQFSMQLLKGGQILCDLTKTKGSGNTVSIKSLKFCHSQLSNNSVSFFLYNLDHSHANYYFCNLSIFDPPPFKVTLTGGYLHIYESQLCCQLK", "Data value": "200 % of wild type ICOSIg"}

Let's switch to this binder now.
Problem: // returns reported B7-H2 Binding (specific binding activity as percentage of ICOSIg) for input ICOSIg homologue replacement mutant RP49-52 (Fc fusion, not shown: CH2-CH3 portion of human IgG1) EINGSANYEMFIFHNGGVQILCKYPDIVREFRMQLLKGGQILCDLTKTKGSGNTVSIKSLKFCHSQLSNNSVSFFLYNLDHSHANYYFCNLSIFDPPPFKVTLTGGYLHIYESQLCCQLK
Result: 9 % of wild type ICOSIg
